PROPERTY_MEASURED: melting point

Past entries and their recorded results:
| COMPOUND | melting point |
| --- | --- |
| COC(=O)c1ccc(N2C(=O)C3C4c5ccccc5C(/C=C/[N+](=O)[O-])(c5ccccc54)C3C2=O)cc1 (stereo not shown) [Compound 16h] | 254 to 255 °C |
| O=C1OC(=O)C2C1C1c3ccccc3C2(CC[N+](=O)[O-])c2ccccc21 (stereo not shown) [Compound 14a] | 242 to 244 °C |
| O=C1C2C3c4ccccc4C(/C=C/[N+](=O)[O-])(c4ccccc43)C2C(=O)N1CO (stereo not shown) [Compound 13n] | 230 to 232 °C |
| COc1cc(CN2C(=O)C3C4c5ccccc5C(/C=C(\C)[N+](=O)[O-])(c5ccccc54)C3C2=O)cc(OC)c1OC (stereo not shown) [Compound 17l] | 227 to 229 °C |
| COc1cc(N2C(=O)C3C4c5ccccc5C(/C=C/[N+](=O)[O-])(c5ccccc54)C3C2=O)cc(OC)c1OC (stereo not shown) [Compound 16f] | 270 to 272 °C |
| C/C(=C\C12c3ccccc3C(c3ccccc31)C1C(=O)NC(=O)C12)[N+](=O)[O-] (stereo not shown) [Compound 13h] | 296 to 300 °C |

Consider the record given below.
Can you look up the measured melting point of CC/C(=C\C12c3ccccc3C(Cl)(c3ccccc31)C1C(=O)OC(=O)C12)[N+](=O)[O-] (stereo not shown) [Compound 13f] for me?
259 to 263 °C
